Reference for the values: paper PMC12472577

ASSAY TEXT: Acute rat toxicity prediction using GUSAR software
RESULT TYPE: LD50

Request: Quick check: LD50 of COc1ccc(CN2CCNCC2)c(OC)c1OC [compound 1, reference compound] ?
Response: ~246 mg/kg

###

Provide the reported LD50 of each item.
ASSAY TEXT: Acute rat toxicity prediction using GUSAR software
CONDITIONS USED: composite across IP, IV, oral, SC GUSAR predictions, lower = more toxic, read-out: geometric mean of the four LD50 values

Request: Quick check: LD50 of COc1ccc2cc(C(C)C(=O)N3CCN(Cc4ccc(OC)c(OC)c4OC)CC3)ccc2c1 (centres unmarked) ?
Response: ~391 mg/kg

Request: Note, next up: COc1ccc(CN2CCN(C(=O)C(C)c3cccc(C(=O)c4ccccc4)c3)CC2)c(OC)c1OC (centres unmarked)
Response: ~398 mg/kg

Request: Note, next up: COc1ccc(CN2CCN(C(=O)C(C)c3ccc(-c4ccccc4)c(F)c3)CC2)c(OC)c1OC (centres unmarked)
Response: ~287 mg/kg

Request: Note, next up: COc1ccc(CN2CCN(C(=O)C(C)c3ccc4c(c3)[nH]c3ccc(Cl)cc34)CC2)c(OC)c1OC (centres unmarked)
Response: ~369 mg/kg

Request: Note, next up: COc1ccc(CN2CCN(C(=O)C(C)c3ccc(CC(C)C)cc3)CC2)c(OC)c1OC (centres unmarked)
Response: ~212 mg/kg
